Below, each entry is listed alongside its reported IL-2, % of BMS, at 100 ug/mL.
system.under.test: T1, human LAG3 expressed on cells (human, UniProt P18627 23-525)
T1 sequence (looked up): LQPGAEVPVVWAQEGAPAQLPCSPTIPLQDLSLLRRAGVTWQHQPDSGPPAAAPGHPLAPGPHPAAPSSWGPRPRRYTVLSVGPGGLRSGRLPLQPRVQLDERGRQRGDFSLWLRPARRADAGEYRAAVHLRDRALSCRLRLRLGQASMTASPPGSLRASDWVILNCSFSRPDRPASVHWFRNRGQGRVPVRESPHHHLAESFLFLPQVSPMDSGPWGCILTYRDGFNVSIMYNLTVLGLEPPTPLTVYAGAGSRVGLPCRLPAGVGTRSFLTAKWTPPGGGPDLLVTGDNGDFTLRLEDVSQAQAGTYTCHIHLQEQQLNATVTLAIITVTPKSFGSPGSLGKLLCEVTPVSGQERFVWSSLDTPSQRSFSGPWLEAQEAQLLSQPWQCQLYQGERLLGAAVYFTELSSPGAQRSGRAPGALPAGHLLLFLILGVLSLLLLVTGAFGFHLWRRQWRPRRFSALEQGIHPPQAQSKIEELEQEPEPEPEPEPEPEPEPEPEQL
experimental.details: cell-based or functional assay
Enter your answer as a number in %; do not include the unit.

Would you please look over these solved cases?
Ask: Request the reported IL-2, % of BMS, at 100 ug/mL associated with sdAb No. 1 (VHH, the tested form was captured by anti-human Fc, its Fc is not described; also called sdAb 1; not shown: Fc part implied by anti-human Fc capture) VHH: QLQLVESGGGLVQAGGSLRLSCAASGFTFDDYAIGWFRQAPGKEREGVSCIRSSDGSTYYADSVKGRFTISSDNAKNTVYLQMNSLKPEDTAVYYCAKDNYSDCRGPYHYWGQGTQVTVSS
Reply: 51.3

Ask: Query (binder): sdAb No. 18 (VHH, Fc of the tested form not described; also called sdAb 18; not shown: Fc part implied by anti-human Fc capture) VHH: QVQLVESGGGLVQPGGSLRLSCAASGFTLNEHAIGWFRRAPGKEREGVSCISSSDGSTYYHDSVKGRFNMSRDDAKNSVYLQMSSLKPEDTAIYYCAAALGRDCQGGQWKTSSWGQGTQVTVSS ; field requested: IL-2, % of BMS, at 100 ug/mL
Reply: 60.9

// moving on: another record for IL-2, % of BMS, at 100 ug/mL
Ask: Returns the measured IL-2, % of BMS, at 100 ug/mL for the input binder. Input: sdAb No. 73 (VHH, Fc not described; also called sdAb 73; not shown: Fc part implied by anti-human Fc capture) VHH: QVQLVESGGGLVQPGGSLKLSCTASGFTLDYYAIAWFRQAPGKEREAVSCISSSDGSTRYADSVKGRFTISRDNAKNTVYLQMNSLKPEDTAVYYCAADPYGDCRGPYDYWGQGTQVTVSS
Reply: 41
